What amyloid nucleation score was measured for each of the following?
- TEST_SUMMARY: amyloid nucleation score (Sup35N fusion, yeast selection) (log enrichment); library NNK1; higher = more nucleation; inactive = no reads after selection;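 further: zero at mode of non-aggregating sequences after 7 days selection at 30°C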
Give the figure by itself; no unit, no explanation.

Report amyloid nucleation score for `LSMKNQDTCTFTCVLSHLSL` please.
1.9

Item under review: `GVLRHNCFIESGRIISVMVT` . Reported amyloid nucleation score?
-0.404

What measured amyloid nucleation score goes with `FLDMVVMGCEFRPSGGFSSV` ?
-0.156

Given the entry `KSSCRDLIVDVNTGE` , report its measured amyloid nucleation score.
0.765

Which amyloid nucleation score value belongs to `WFELWKSVRGMENYAYVARC` ?
-0.043

Report amyloid nucleation score for `DLFYDGCSRFLVMSKGTALV` please.
-0.412

Quick one: amyloid nucleation score for `SSTLLRMIEVRNGWEKGVWE` ?
0.083

Fill blank: measured amyloid nucleation score of the sequence `RIYILIDYSVYFSSIELLHF` is ____.
-1.67

Form field: reported amyloid nucleation score of `WEWSTGFRCC`
0.566

* * *

I'd be grateful if you could share measured amyloid nucleation score for these entries.
- TEST_SUMMARY: amyloid nucleation score (Sup35N fusion, yeast selection) (log enrichment); library NNK2; higher = more nucleation; inactive = no reads after selection
Number, no unit, nothing else.

Which amyloid nucleation score reading was recorded for the sequence `RAPVSWRLK` ?
0.267

# get_value(readout='amyloid nucleation score', item= `NVVFRFVVEYNLWWLSVPDY` )
-0.578

Sample `RRWYYFIEWRKYYQNRTVDQ` — what was its amyloid nucleation score?
-0.321

Which value of amyloid nucleation score has been reported for `RLFNTYYSRSFASYGYWLHC` in the records?
0.47

Given `SGYVIHLVDDKALHTCDRNQ` , state its recorded amyloid nucleation score.
0.294

Return reported amyloid nucleation score; argument: `CSCDGWVCPCSACIC`
8.71

Requested read-out: amyloid nucleation score. Entry: `FLAILWLFMLGKVSGCVDKW`
-0.155

May I ask what amyloid nucleation score has been recorded for `LRDCFVEYEGSSSMYYLRQW` ?
-0.105

Given the sequence `AFVNVVGLVYSF` , what is its reported amyloid nucleation score?
-1.42

* * *

- TEST_SUMMARY: amyloid nucleation score (Sup35N fusion, yeast selection) (log enrichment); library NNK1; higher = more nucleation; inactive = no reads after selection
Please go through the items and note down their amyloid nucleation score.
Please respond with just the number, no unit label.

Which amyloid nucleation score is reported for this substance? `NVTCSHPGFFYSIVKTYMFR`
-0.877

Given `GVCWLKIRALPDSYWLVFL` , state its recorded amyloid nucleation score.
-0.776

Give its amyloid nucleation score value. Item: `WELVCISFLVRDTCVVI`
0.263

For the substance `FWVDCSRVVRLKIQFNLV` , what amyloid nucleation score is on record?
0.864

Recorded amyloid nucleation score for `SLPQKGIHWRQYL` , please?
0.368

Could you tell me which amyloid nucleation score is on file for `NRALGMRGVIGPSVWYVVP` ?
0.534

Find the recorded amyloid nucleation score belonging to `DRYIREISNTATCFALLL` and report it.
4.29

Item under review: `GGEDLRKFLDMFVIVSKNTT` . Reported amyloid nucleation score?
0.67

Any idea what its amyloid nucleation score is? The substance is `YGGMDS`
0.132

Could you share which amyloid nucleation score value was measured for `IAPSNFRGWMAHYKV` ?
0.213

Could you share which amyloid nucleation score value was measured for `ARGYAGVRRLVGYR` ?
0.133

Look up amyloid nucleation score: `FNRENGRNFALVVCLLDRFG`
1.41

Endpoint output: amyloid nucleation score of `ASMWSWRYHMEAINSTKAEA` . Value?
-0.745

What does the data say about its amyloid nucleation score? Entry: `NYAQVLRTSFTNGVLTLKEE`
-0.526

Record request: amyloid nucleation score value, item `EQCHRVFRAL`
0.362

Find the recorded amyloid nucleation score belonging to `SWFYYAKC` and report it.
0.05

What value of amyloid nucleation score has been reported for the following substance? `VSVMFYPFVFHWYGCLLTSA`
2.96

# lookup: amyloid nucleation score of `VTRFSAGTITVLTRDWRANC`
-0.486

Quick one: amyloid nucleation score of `KRVIAMLTLIFG` ?
0.534

What value of amyloid nucleation score has been reported for the following substance? `IHVSFKDYLTVSTIMMWTIV`
-0.077

What value of measured amyloid nucleation score is listed for `KVAHCCSDMYSWRVGKMMSM` ?
0.024

What does the data say about its amyloid nucleation score? Entry: `YTYTQTFLV`
-0.255

Can you look up the measured amyloid nucleation score of `WPDISCPPCNGDRMTVKWHV` for me?
0.836

Recorded amyloid nucleation score for `IILIDMVCPPCRPRFRSYSC` , please?
-0.153

// amyloid nucleation score lookup, key: `SRYGWGTRSESRQLTSLSCT`
-0.304

Consider the substance `ILMHSIAVFTRGIGRIRLAS` and give its measured amyloid nucleation score.
0.913

Recorded amyloid nucleation score for `RSHSNISKSPLFVVGGAQFM` , please?
0.995

Which amyloid nucleation score is reported for this substance? `RRGEPIKKIPACGGSLCVR`
-0.368

Could you share which amyloid nucleation score value was measured for `LMESVAVFPNSRLPILTEC` ?
-0.011

I am curious: what amyloid nucleation score value has been reported for `SLLNTELQIKAQYDQMSHRR` ?
0.36

Returns the measured amyloid nucleation score for the input substance. Input: `LYPKSFYTKYYEWYTSGLIF`
0.236
